Target: PKR(R510Q) (Homo sapiens, UniProt P30613, R510Q)
Sequence (P30613 whole entry R510Q): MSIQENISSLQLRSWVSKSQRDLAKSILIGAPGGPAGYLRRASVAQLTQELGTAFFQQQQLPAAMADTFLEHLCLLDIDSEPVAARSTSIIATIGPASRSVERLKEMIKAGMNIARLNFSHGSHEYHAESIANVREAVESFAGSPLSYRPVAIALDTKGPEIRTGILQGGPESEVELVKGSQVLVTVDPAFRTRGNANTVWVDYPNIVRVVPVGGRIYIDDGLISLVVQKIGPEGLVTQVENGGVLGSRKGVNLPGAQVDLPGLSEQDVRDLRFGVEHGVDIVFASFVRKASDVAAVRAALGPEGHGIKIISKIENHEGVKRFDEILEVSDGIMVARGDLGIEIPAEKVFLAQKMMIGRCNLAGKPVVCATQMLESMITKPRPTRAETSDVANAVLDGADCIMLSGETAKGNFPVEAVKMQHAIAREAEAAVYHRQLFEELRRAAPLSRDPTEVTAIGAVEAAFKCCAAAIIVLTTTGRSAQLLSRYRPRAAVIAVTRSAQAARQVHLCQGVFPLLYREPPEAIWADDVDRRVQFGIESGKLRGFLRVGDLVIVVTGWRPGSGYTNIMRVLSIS
Procedure Details: Luminescence Assay Protocol (Kinase Glo Plus), PKR(R510Q/without FBP)
Format: biochemical
Experimental Setup: PKRR510Q, without FBP, compound 1.54 μM; read-out: F - AC50 LUM KGP woFBP % Fold @ 1.54 μM mean
Method: Example 47: PKR(Wt/without FBP), PKR(G332S/with FBP), PKR(R510Q/without FBP) The phosphorylation of Adenosine-5′-diphosphate (ADP) by various mutants of PKR was determined by the Kinase Glo Plus Assay (Promega) in the presence or absence of FBP [D-Fructose-1,6-diphosphate; BOC Sciences, CAS: 81028-91-3] as follows. […] Enzyme and PEP [Phospho(enol) pyruvic acid] were added at 2× to all wells of an assay-ready plate containing serial dilutions of test compounds or DMSO vehicle. […]
Quantity Measured: activation at 1.54 µM

# Compound, Quantity Measured, Data Value
rows = [
    ("CC1(C)CNc2cc(S(=O)(=O)N3CC4=C(CN(C(=O)[C@H](CO)c5ccccc5)C4)C3)ccc2O1 [Example 32]", "activation at 1.54 µM", "75 to 250%"),
    ("O=C([C@H](CO)c1ccccc1)N1CC2=C(C1)CN(S(=O)(=O)c1ccc3ncsc3c1)C2 [Example 29]", "activation at 1.54 µM", "250 to 500%"),
]

Q: # activation at 1.54 µM lookup, item O=C([C@H](CO)c1ccccc1)N1CC2=C(C1)CN(S(=O)(=O)c1ccc(C(F)(F)F)nc1)C2 [Example 52]
Result: 75 to 250%

Q: # activation at 1.54 µM lookup, item O=C([C@@H](CO)c1ccccc1)N1CC2=C(C1)CN(S(=O)(=O)c1ccc3ncsc3c1)C2 [Example 30]
Result: 250 to 500%

Measured values drawn from patent US11649242B2 for this set.
